Cited source: paper PMC10786891

Provide the recorded Kd for the entries that follow.
# Target or test system: T1, EsCas13d, nuclease-dead (Eubacterium siraeum, UniProt B0MS50, R295A;H300A;R849A;H854A)
# T1 sequence: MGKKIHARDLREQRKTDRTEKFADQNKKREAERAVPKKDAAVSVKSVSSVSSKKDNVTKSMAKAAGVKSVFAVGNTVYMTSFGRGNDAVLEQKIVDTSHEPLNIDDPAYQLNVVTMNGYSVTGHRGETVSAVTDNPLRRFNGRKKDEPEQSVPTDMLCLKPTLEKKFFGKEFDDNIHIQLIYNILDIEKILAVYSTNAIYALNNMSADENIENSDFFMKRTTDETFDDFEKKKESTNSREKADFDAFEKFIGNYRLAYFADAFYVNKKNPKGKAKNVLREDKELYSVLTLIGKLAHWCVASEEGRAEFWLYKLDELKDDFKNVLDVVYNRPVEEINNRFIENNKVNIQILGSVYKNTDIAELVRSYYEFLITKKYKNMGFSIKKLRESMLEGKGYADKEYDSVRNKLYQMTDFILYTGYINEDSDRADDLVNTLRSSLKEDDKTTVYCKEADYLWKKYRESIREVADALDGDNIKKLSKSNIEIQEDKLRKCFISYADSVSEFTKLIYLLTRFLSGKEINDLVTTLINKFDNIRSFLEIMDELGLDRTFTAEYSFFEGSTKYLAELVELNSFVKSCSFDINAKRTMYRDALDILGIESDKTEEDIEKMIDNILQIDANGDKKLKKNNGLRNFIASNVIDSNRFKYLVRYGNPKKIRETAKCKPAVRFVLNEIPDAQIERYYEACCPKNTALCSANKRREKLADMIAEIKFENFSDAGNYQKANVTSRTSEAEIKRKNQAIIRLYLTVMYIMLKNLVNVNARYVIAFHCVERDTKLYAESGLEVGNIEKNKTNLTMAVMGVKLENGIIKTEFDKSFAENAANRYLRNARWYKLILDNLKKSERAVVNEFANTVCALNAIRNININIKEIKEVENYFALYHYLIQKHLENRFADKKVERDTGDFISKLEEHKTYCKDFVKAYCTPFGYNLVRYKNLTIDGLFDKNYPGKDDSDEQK
# Protocol: crRNA (strand 1, pre-loaded); Mg2+; 40 mM Tris-HCl pH 7.5, 150 mM NaCl, 6 mM MgCl2, 1 mM DTT, 0.1% Tween-20, 0.2 mg/ml BSA; 25 C; 10 min per concentration, then washed
# Run parameters: tags: His6-TwinStrep-SUMO cleaved; N-terminal SNAP kept (SNAP-Surface 488); label: 3' end held by stalled T7 RNA polymerase
Value expressed in nM; do not type the unit.

Input line: Given target 2 MT 5'PFS AAU 3'PFS ACA (mixed) RNA 1: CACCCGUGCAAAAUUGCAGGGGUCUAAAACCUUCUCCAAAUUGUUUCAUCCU RNA 2: GGGAAUGGAUCCACAUCUACGAAUUCAAUAGGAUGAAACAAUUUGGAGAAGACAAGAUCGGAAGAGCACACGU , respond with its Kd.
Output line: 7.5

Input line: Given target 2 MT 5'PFS CUA 3'PFS CCA (mixed) RNA 1: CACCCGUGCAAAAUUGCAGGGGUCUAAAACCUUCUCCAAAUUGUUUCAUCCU RNA 2: GGGAAUGGAUCCACAUCUACGAAUUCCUAAGGAUGAAACAAUUUGGAGAAGCCAAGAUCGGAAGAGCACACGU , respond with its Kd.
Output line: 2.9

Input line: Given target 1 U3C,A9U (mixed) RNA 1: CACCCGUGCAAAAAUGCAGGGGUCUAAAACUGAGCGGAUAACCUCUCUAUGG RNA 2: GGGAAUGGAUCCACAUCUACGAAUUCGUACCAUAGAGAGGUUUUCCGCCCACCGAGAUCGGAAGAGCACACGU , respond with its Kd.
Output line: 44

Input line: Given target 1 insG 3' of 21,insU 3' of 20 (mixed) RNA 1: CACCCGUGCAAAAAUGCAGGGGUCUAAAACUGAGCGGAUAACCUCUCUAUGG RNA 2: GGGAAUGGAUCCACAUCUACGAAUUCGUACCGAUUAGAGAGGUUAUCCGCUCACCGAGAUCGGAAGAGCACACGU , respond with its Kd.
Output line: 58

Input line: Given target 1 insA 3' of 8,insA 3' of 8 (mixed) RNA 1: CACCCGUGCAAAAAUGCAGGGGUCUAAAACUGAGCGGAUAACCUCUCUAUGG RNA 2: GGGAAUGGAUCCACAUCUACGAAUUCGUACCAUAGAGAGGUUAUAACCGCUCACCGAGAUCGGAAGAGCACACGU , respond with its Kd.
Output line: 32.2

Input line: Given target 1 MT 5'PFS GUC 3'PFS UUA (mixed) RNA 1: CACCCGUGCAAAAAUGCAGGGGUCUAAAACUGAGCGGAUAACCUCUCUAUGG RNA 2: GGGAAUGGAUCCACAUCUACGAAUUCGUCCCAUAGAGAGGUUAUCCGCUCAUUAAGAUCGGAAGAGCACACGU , respond with its Kd.
Output line: 12.2

Input line: Given target 1 MT 5'PFS GUA 3'PFS CUG (mixed) RNA 1: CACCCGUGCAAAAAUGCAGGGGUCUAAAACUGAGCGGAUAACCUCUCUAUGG RNA 2: GGGAAUGGAUCCACAUCUACGAAUUCGUACCAUAGAGAGGUUAUCCGCUCACUGAGAUCGGAAGAGCACACGU , respond with its Kd.
Output line: 7.89

Input line: Given target 1 U11A,C22U (mixed) RNA 1: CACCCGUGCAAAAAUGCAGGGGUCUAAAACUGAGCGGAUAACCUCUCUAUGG RNA 2: GGGAAUGGAUCCACAUCUACGAAUUCGUAUCAUAGAGAGGAUAUCCGCUCACCGAGAUCGGAAGAGCACACGU , respond with its Kd.
Output line: 52
